- runDescription: ATG_ISRE_CIS: Attagene CIS-FACTORIAL HepG2 Assay for human Interferon Regulatory Factor 1 (IRF1) binding to an Interferon-Stimulated Response Element (ISRE) (AID 2282948)
- runParameters: HepG2 ISRE cis-reporter (Attagene), mRNA transcription readout; actives raise or lower the signal
Calls of active or inactive are those of the source. How the source made its calls: active means hit-call score of the fitted dose curve at least 0.9, where 1 is the maximum; inactive means score below 0.9.
Log the outcome using a class from active, inactive

| compound | category |
| --- | --- |
| Cc1cn([C@H]2C[C@H](N=[N+]=[N-])[C@@H](CO)O2)c(=O)[nH]c1=O | inactive |
| CC[C@H](NC(=O)c1cc(F)ccc1NS(=O)(=O)c1cccc2cccnc12)c1ccccc1 | inactive |
| O=C(O)c1ccccc1C(=O)OCc1ccccc1 | inactive |
| COCC(C)OCC(C)OCC(C)O (configuration not stated) | inactive |

Query: Give the logged outcome of this assay for the following compound: Cc1cc2c(cc1C(F)(F)F)N(C(=O)Nc1ccc(Oc3cccnc3C)nc1)CC2
Response: inactive

Query: Given CCCOC(=O)c1cc(O)c(O)c(O)c1 , state the outcome it received in this test.
Response: inactive

Query: Write down the call the test reported for this compound. Item: c1ccc(C[n+]2cccc3ccccc32)cc1
Response: inactive

Query: So what was the verdict on O=C(O)Cn1c(=O)n(Cc2ccc(Br)cc2F)c(=O)c2ccc(Cl)cc21 in this test?
Response: inactive

Query: recorded result category for CCCCCCCCOc1ccc(C(=O)c2ccccc2)c(O)c1 in this test
Response: inactive

Query: # fetch the recorded call for CN(C)C(=O)C1(N2CCCCC2)CCN(CC[C@@]2(c3ccc(Cl)c(Cl)c3)CN(C(=O)c3ccccc3)CCO2)CC1 here
Response: inactive

Query: Tell me the assay call for CCN(Cc1cccc(S(=O)(=O)O)c1)c1ccc(C(=C2C=CC(=[N+](CC)Cc3cccc(S(=O)(=O)O)c3)C=C2)c2ccccc2S(=O)(=O)[O-])cc1 please.
Response: inactive

Query: Dear colleague, could you share the recorded outcome for O=C(O)Cc1cc(I)c(Oc2ccc(O)c(I)c2)c(I)c1 when you have a moment?
Response: inactive

----------
- runDescription: BSK_KF3CT_SRB: Viability Assessment in the BioMAP Diversity Plus: KF3CT Assay (AID 2283069);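 further: total protein by sulforhodamine B staining as a cytotoxicity measure; read 24 h after compound addition; fitted for both signal gain and loss against DMSO baseline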
- runParameters: primary human keratinocytes with fibroblasts
Calls of active or inactive are those of the source. How the source made its calls: active means hit-call score of the fitted dose curve at least 0.9, where 1 is the maximum; inactive means score below 0.9.

| moleculeSmiles | outcome |
| --- | --- |
| OCCO | inactive |
| CC[C@H](NC(=O)c1cc(F)ccc1NS(=O)(=O)c1cccc2cccnc12)c1ccccc1 | inactive |
| Cc1c2ccccc2c(C)c2c1ccc1ccccc12 | inactive |

----------
- Read-out: Nuclear factor erythroid 2-related factor 2 (Homo sapiens)
- runDescription: LTEA_HepaRG_NFE2L2: Life Technologies and Expression Analysis (LTEA) Assay for Nuclear factor erythroid 2-related factor 2 (NFE2L2) Transcription Factor using HepaRG (AID 2283527)
- runParameters: mRNA level, 48 h; actives raise or lower the signal
Activity calls are given as the source filed them. How the source made its calls: active means hit-call score of the fitted dose curve at least 0.9, where 1 is the maximum; inactive means score below 0.9.
endpointLabel: AC50

Answered cases to consult:
| moleculeSmiles | AC50 |
| --- | --- |
| O=C=NCCCCCCN=C=O | inactive |
| CC(C)(C)c1cc(/C=C2\SC(N)=NC2=O)cc(C(C)(C)C)c1O | 22.7 µM (active) |
| O=c1ccc2ccccc2o1 | inactive |
| COc1cc(C(=O)NC2CCN(C)CC2)ccc1Nc1ncc2c(n1)N(C1CCCC1)CC(F)(F)C(=O)N2C | 25.4 µM (active) |

Query: Tell me measured AC50 for C[C@]12CC[C@@H]3c4ccc(O)cc4CC[C@H]3[C@@H]1CC[C@H]2O please.
Response: inactive
